Listed below: Percent Effect values for each entry.
- ASSAY_TARGET: Proteasome subunit beta (Trypanosoma cruzi)
- METHOD_NOTES: Trypanosoma cruzi proteasome chymotrypsin-like activity (TcProtChymo) assay. Further: in the data most compounds retested in dose-response had high values.
- Format: functional
- Design: scale not given: direction of the effect not stated beside the values
- DETAILS: 9.37 µM
READOUT_TYPE: Percent Effect

[[record]]
compound = "CC(=O)NCC(=O)N1CCC2(CC1)CN(c1cccnc1)C(=O)CO2"
result = "26.2%"

[[record]]
compound = "Cc1nc2c(c(NC3CC3)n1)CCN(C(=O)C(C)(C)O)CC2"
result = "28%"

[[record]]
compound = "CC(=O)N1CCCN(C(=O)c2ccn(-c3cccc(Cl)c3)n2)CC1"
result = "12.8%"

[[record]]
compound = "CCCN(C)C(=O)c1ccc2c(c1)[nH]c(=O)n2CCOCC"
result = "9.65%"

[[record]]
compound = "CCN1CC2(CC1=O)CN(C(C)=O)CCN(C(=O)c1ccco1)C2 (stereo unspecified)"
result = "5.05%"

[[record]]
compound = "CC(=O)Nc1ccc(-n2ccc3nc(N4CCCC4)ncc3c2=O)cc1"
result = "3.14%"


###

- ASSAY_TARGET: Tyrosyl-tRNA synthetase, putative (Trypanosoma cruzi (strain CL Brener))
- METHOD_NOTES: Trypanosoma cruzi tyrosyl tRNA synthetase (TcYRS) SOP
- Type: functional
- Parameters: scale not given: direction of the effect not stated beside the values
- DETAILS: 30 µM
READOUT_TYPE: Percent Effect (%)

[[record]]
compound = "Clc1ccc(OCCN2CCN(CCn3cncn3)CC2)cc1"
number = 14.6

[[record]]
compound = "Cc1cc(C)c(CNC(=O)N2CCCC2C(N)=O)c(=O)[nH]1 (centres undefined)"
number = 12.7

[[record]]
compound = "Cc1ccc(N2CCCC(NCC(=O)Nc3cc(C)no3)C2)nn1 (centres undefined)"
number = 7.59

[[record]]
compound = "Cc1ccc(N2CCCC(N(C)Cc3cc(C)no3)C2)nn1 (centres undefined)"
number = 11.1

[[record]]
compound = "COCCN(C)Cc1ccc(OC)c(OC(F)F)c1"
number = -6.17

[[record]]
compound = "CN(C)C(=O)COC[C@]12COC[C@H]1CN(CC1CCC1)C2"
number = 3.7

[[record]]
compound = "CCOCc1ncn2c1CN(C(=O)Nc1cccc(C)c1)CC2"
number = 13.4

[[record]]
compound = "CN1CCCC1CNC(=O)CCCOc1ccc(F)cc1 (centres undefined)"
number = 7.32

[[record]]
compound = "CC(C)S(=O)(=O)NCC1CCCN(C(=O)c2ccc3c(c2)CCC3)C1 (centres undefined)"
number = 7.5

[[record]]
compound = "CC1(C(=O)N2CCOCC2)CN(Cc2ccccn2)CCO1 (centres undefined)"
number = -3.9

[[record]]
compound = "CC(C(=O)NCc1ccnc(Oc2ccc(F)cc2)c1)n1cncn1 (centres undefined)"
number = 14.6

[[record]]
compound = "COCc1ccc(CNC(=O)C2=NN(c3ccccc3)C(=O)CN2)cc1"
number = 13.6

[[record]]
compound = "O=C(c1ccoc1)N1CC[C@H]2OCC[C@@]2(COc2ncccc2F)C1"
number = 21

[[record]]
compound = "Cc1cnn(CC(C)NCc2ccc(S(C)(=O)=O)cc2)c1 (centres undefined)"
number = 25.3

[[record]]
compound = "COc1ccc(CCNC(=O)NC2CCCC2)cc1OC"
number = 9.76

[[record]]
compound = "Cc1cnn(CC2CN(c3cnc4ccccc4n3)CCO2)c1 (centres undefined)"
number = 21.5

[[record]]
compound = "O=C(NCCN1CCCCCC1=O)c1ccn(-c2ccc(F)cc2)n1"
number = 16.1

[[record]]
compound = "CN(Cc1ncc(C(C)(C)C)o1)C1CCCN(c2cccnn2)C1 (centres undefined)"
number = 16.5

[[record]]
compound = "Cc1ccc(NC2CCN(C(=O)c3cccc(F)c3F)CC2)nn1"
number = 5.06

[[record]]
compound = "COc1ncccc1NC(=O)C1CCS(=O)(=O)C1 (centres undefined)"
number = 12.2

[[record]]
compound = "COc1ccc(C(=O)N2C[C@@H](C(=O)O)[C@H](c3ccccc3C)C2)c(O)c1"
number = 16.1

[[record]]
compound = "COCCN(Cc1ccc(F)cc1Cl)C(=O)c1ccc(=O)[nH]n1"
number = 5.13

[[record]]
compound = "Cc1cnn(C2CCCN(C(=O)CCc3nccs3)C2)c1 (centres undefined)"
number = 3.7

[[record]]
compound = "c1nc2c(c(C3CC3)n1)CCN(Cc1ccc3c(c1)OCO3)CC2"
number = 1.24

